Data provenance is patent US5191079A.

For each entry below, report its log10(MIC) value.
System: Enterobacter cloacae 963
Counter-ions that a name gives are not always drawn.
# log10 transformed; quantity=MIC; unit=µg/mL

| Compound | Assay Result |
| --- | --- |
| CN1Cc2csc3c(C(=O)O)c(=O)c4cc(F)c(N5CCC(N(C)C)CC5)c1c4n23 | -0.41 |
| CN1CCN(c2c(F)cc3c(=O)c(C(=O)O)c4scc5n4c3c2OC5)CC1 [Compound (Y), hydrochloride, reference compound] | -1.00 |
| CN1Cc2csc3c(C(=O)O)c(=O)c4cc(F)c(N5CCN6CCOC[C@H]6C5)c1c4n23 | -0.11 |
| CN1Cc2csc3c(C(=O)O)c(=O)c4cc(F)c(N5CCO[C@H](CO)C5)c1c4n23 | -0.70 |
| CN1Cc2csc3c(C(=O)O)c(=O)c4cc(F)c(N5CCO[C@@H](CO)C5)c1c4n23 | -0.41 |

Record log10(MIC) for all entries; do not skip any.
1. COC[C@@H]1CN(c2c(F)cc3c(=O)c(C(=O)O)c4scc5n4c3c2N(C)C5)CCO1
2. CN1Cc2csc3c(C(=O)O)c(=O)c4cc(F)c(N5CCOC(CO)C5)c1c4n23 (stereo not shown)
3. COC[C@H]1CN(c2c(F)cc3c(=O)c(C(=O)O)c4scc5n4c3c2N(C)C5)CCO1

-- reply
1. -0.11
2. -0.70
3. 0.19
